# System: Radical scavenging activity
# assay.name: Antioxidant activity assessed as DPPH radical scavenging activity
# Assay type: functional
Binary label based on Scavenging with cut-off 60%: below gives met, not below gives not met.

Examples from the recorded data:
>>> assigned_class("O=c1c(O)c(-c2ccc(O)c(O)c2)oc2c1ccc1occc12")
"not met"
>>> assigned_class("O=C(O)c1ccc2c(c1)OCO2")
"met"
>>> assigned_class("COc1c(-c2ccc3c(c2)OCO3)oc2cc(O)ccc2c1=O")
"not met"
>>> assigned_class("COc1c(C(=O)/C=C(\\O)c2ccccc2)ccc2occc12")
"met"

Next:
Ask: Given `O=c1cc(-c2ccc(O)c(O)c2)oc2c1ccc1occc12` , is recorded Scavenging strictly lower than 60%?
Reply: met

----------
Measured Inhibition of individual entries
# assay.name: Inhibition of rat alpha-glucosidase assessed as p-nitrophenol release at 50 ug/ml
Give just the number in %; leave the unit off.

>>> number("COc1c(C(=O)/C=C(\\O)c2ccccc2)ccc2occc12")
58.2

Ask: Which measured Inhibition value corresponds to `COc1ccc(-c2cc(=O)c3c(O)cc(OC)cc3o2)cc1` ?
Reply: 4.4

Ask: Also, `O=C(O)c1ccc2c(c1)OCO2` please.
Reply: 18.4

Ask: What do you get for `COc1c(-c2ccc3c(c2)OCO3)oc2cc(O)ccc2c1=O` ?
Reply: 36

Ask: Repeat with `O=c1c(O)c(-c2ccc(O)c(O)c2)oc2c1ccc1occc12`
Reply: 37.9

Ask: Entry `COc1c(-c2ccc3c(c2)OCO3)oc2c3c(ccc2c1=O)OC(C)(C)C=C3` please
Reply: 22.8

Ask: Next entry: `O=c1cc(-c2ccc3c(c2)OCO3)oc2c1ccc1occc12`
Reply: 8.6

Ask: Also `COc1c2ccoc2cc2oc(-c3ccccc3)cc(=O)c12` , if possible.
Reply: 36.5

Ask: Another compound: `O=c1cc(-c2ccc(O)c(O)c2)oc2c1ccc1occc12`
Reply: 25.6

Ask: Please answer likewise for `COc1cc(O)c2c(=O)cc(-c3ccccc3)oc2c1`
Reply: 28.7
